TESTED TARGET: E. coli GroEL/ES (Escherichia coli, UniProt P0A6F5)
Sequence (P0A6F5 whole entry, looked up): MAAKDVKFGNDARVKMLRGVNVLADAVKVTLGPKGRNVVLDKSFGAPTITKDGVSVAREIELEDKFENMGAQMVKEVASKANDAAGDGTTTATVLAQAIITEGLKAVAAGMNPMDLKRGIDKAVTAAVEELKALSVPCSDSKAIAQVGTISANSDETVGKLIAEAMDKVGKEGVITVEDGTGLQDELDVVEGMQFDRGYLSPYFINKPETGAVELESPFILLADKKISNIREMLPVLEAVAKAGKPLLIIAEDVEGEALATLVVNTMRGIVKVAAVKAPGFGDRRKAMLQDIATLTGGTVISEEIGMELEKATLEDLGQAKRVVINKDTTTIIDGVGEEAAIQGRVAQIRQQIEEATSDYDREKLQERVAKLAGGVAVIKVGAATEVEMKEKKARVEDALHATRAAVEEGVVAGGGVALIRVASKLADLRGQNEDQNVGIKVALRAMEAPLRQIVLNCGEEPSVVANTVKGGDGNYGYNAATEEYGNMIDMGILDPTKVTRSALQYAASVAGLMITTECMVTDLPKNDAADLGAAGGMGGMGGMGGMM
TEST NAME: Inhibition of Escherichia coli GroEL expressed in Escherichia coli DH5alpha/Escherichia coli GroES expressed in Escherichia coli BL21 (DE3) assessed as reduction in GroEL/GroES-mediated denatured rhodanese refolding by measuring rhodanese enzyme activity after 45 mins by Fe(SCN)3 dye based spectrometric analysis
MEASURE: IC50 (µM)
Entry rule: numbers only, all in µM.

Measured IC50, O=S(=O)(Nc1ccc(-c2nc3ccccc3o2)cc1)c1cccc(C(F)(F)F)c1 : 170

COc1ccccc1S(=O)(=O)Nc1ccc2oc(-c3ccccc3)nc2c1 yielded IC50 of 89

For this compound ( Cc1ccccc1S(=O)(=O)Nc1ccc2oc(-c3ccccc3)nc2c1 ), measured IC50 is 127

----------
TESTED TARGET: Tyrosine-protein phosphatase non-receptor type 5 (Homo sapiens, UniProt P54829)
Sequence (P54829 whole entry): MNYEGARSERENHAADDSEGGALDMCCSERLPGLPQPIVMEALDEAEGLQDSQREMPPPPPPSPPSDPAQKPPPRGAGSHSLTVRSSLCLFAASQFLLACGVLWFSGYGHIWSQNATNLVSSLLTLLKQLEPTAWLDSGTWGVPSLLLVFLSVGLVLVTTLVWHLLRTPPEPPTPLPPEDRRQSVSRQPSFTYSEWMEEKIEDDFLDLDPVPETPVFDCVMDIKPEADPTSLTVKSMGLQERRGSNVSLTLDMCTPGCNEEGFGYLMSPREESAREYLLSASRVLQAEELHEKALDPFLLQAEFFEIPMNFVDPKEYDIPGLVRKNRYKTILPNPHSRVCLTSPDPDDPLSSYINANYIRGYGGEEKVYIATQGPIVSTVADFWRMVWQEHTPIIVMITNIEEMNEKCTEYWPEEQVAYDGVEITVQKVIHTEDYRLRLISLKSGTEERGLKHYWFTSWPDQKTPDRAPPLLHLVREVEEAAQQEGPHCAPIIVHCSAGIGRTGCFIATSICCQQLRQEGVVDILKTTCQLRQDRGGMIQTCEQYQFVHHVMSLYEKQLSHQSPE
For each entry below, report its IC50 value.
Could you give me the number in µM? Just the number is fine.

# IC50 (compound: O=S(=O)(Nc1ccc2oc(-c3ccc(NS(=O)(=O)c4cccc5ccccc45)cc3)nc2c1)c1ccc(Cl)s1 ) is 9.1

For record O=S(=O)(Nc1ccc(-c2nc3cc(NS(=O)(=O)c4cccc(O)c4)ccc3o2)cc1)c1cccc(O)c1 the listed IC50 is 47

// O=S(=O)(Nc1ccc2oc(-c3ccc(NS(=O)(=O)c4ccc(Cl)s4)cc3)nc2c1)c1ccc(Cl)c(C(F)(F)F)c1 : IC50 value = 11

Quick note, IC50 for O=S(=O)(Nc1ccc2oc(-c3ccc(NS(=O)(=O)c4ccc(Cl)s4)cc3)nc2c1)c1cccc(C(F)(F)F)c1 landed at 16

Briefly, IC50 measured for C=Cc1ccc(S(=O)(=O)Nc2ccc(-c3nc4ccccc4o3)cc2)cc1 : 31

Measured IC50 of O=S(=O)(Nc1ccc(-c2nc3cc(NS(=O)(=O)c4ccc(Cl)s4)ccc3o2)cc1)c1ccc2ncsc2c1 : 13

Briefly, IC50 measured for O=S(=O)(Nc1ccc(-c2nc3cc(NS(=O)(=O)c4ccccc4)ccc3o2)cc1)c1ccccc1 : 23

Query O=S(=O)(Nc1ccc2oc(-c3ccccc3)nc2c1)c1cccs1 yields IC50 of 85

Measured IC50 of O=S(=O)(Nc1ccc(-c2nc3ccccc3o2)cc1)c1cccc(C(F)(F)F)c1 : 40

Noted for O=S(=O)(Nc1ccc2oc(-c3ccccc3)nc2c1)c1ccccc1 : its IC50 reads 42

O=[N+]([O-])c1cc(S(=O)(=O)Nc2ccc(-c3nc4ccccc4o3)cc2)ccc1Cl yielded IC50 of 46

Lab note: measured IC50 of Cc1ccc(S(=O)(=O)Nc2ccc3oc(-c4ccccc4)nc3c2)cc1 was 39

IC50 measured on COc1ccc(S(=O)(=O)Nc2ccc(-c3nc4cc(NS(=O)(=O)c5ccc(Cl)s5)ccc4o3)cc2)cc1 = 16

Reported IC50 for CS(=O)(=O)Nc1ccc(-c2nc3cc(NS(=O)(=O)c4ccc(Cl)s4)ccc3o2)cc1 was 52

compound O=S(=O)(Nc1ccc(-c2nc3cc(NS(=O)(=O)c4ccc(O)cc4)ccc3o2)cc1)c1ccc(O)cc1 , IC50 observed: 35

Note to self: IC50 recorded for O=[N+]([O-])c1cc(S(=O)(=O)Nc2ccc3oc(-c4ccc(NS(=O)(=O)c5ccc(Cl)s5)cc4)nc3c2)ccc1Cl was 8.4

So for O=S(=O)(Nc1ccc(-c2nc3cc(NS(=O)(=O)c4ccc(F)cc4)ccc3o2)cc1)c1ccc(F)cc1 , the logged IC50 turned out to be 23

Note to self: IC50 recorded for O=c1ccc2cc(S(=O)(=O)Nc3ccc(-c4nc5cc(NS(=O)(=O)c6ccc(Cl)s6)ccc5o4)cc3)ccc2o1 was 15

----------
Please provide measured log10(IC50) for the entries that follow.
TESTED TARGET: E. coli GroEL/ES (Escherichia coli, UniProt P0A6F5)
TEST NAME: Inhibition of Escherichia coli GroEL expressed in Escherichia coliDH5alpha/Escherichia coli GroES expressed in Escherichia coli BL21 (DE3) assessed as reduction in GroEL/GroES-mediated denatured pig heart mitochondrial MDH refolding by measuring MDH enzyme activity using sodium mesoxalate as substrate after 20 to 40 mins by spectrometric analysis
Quick note: numbers are log10 of IC50, with µM as the unit.

Field log10(IC50) (entry CS(=O)(=O)Nc1ccc(-c2nc3cc(NS(=O)(=O)c4ccc(Cl)s4)ccc3o2)cc1 ) reads 1.15

Record O=S(=O)(Nc1ccc2oc(-c3ccccc3)nc2c1)c1cccc(O)c1 . Reported log10(IC50): 1.76

Notebook: O=S(=O)(Nc1ccc(-c2nc3cc(NS(=O)(=O)c4ccc(O)cc4)ccc3o2)cc1)c1ccc(O)cc1 , log10(IC50) read as -0.64

For reference, reported log10(IC50) for O=S(=O)(Nc1ccc(-c2nc3ccccc3o2)cc1)c1ccccc1Cl stands at 1.93

Record O=S(=O)(Nc1ccc(-c2nc3cc(NS(=O)(=O)c4cccc(O)c4)ccc3o2)cc1)c1cccc(O)c1 , field log10(IC50): -0.01

The molecule O=S(=O)(Nc1ccc(-c2nc3cc(NS(=O)(=O)c4cccs4)ccc3o2)cc1)c1cccs1 showed log10(IC50) equal to 0.74

Entry COc1ccc(Cl)cc1S(=O)(=O)Nc1ccc2oc(-c3ccccc3)nc2c1 ; log10(IC50) = 1.91

Value of measured log10(IC50) for the entry COc1ccccc1S(=O)(=O)Nc1ccc2oc(-c3ccccc3)nc2c1 : 1.93

Entry O=S(=O)(Nc1ccc(-c2nc3cc(NS(=O)(=O)c4ccccc4)ccc3o2)cc1)c1ccccc1 — recorded log10(IC50) = 0.60

Record summary for O=S(=O)(Nc1ccc(-c2nc3ccccc3o2)cc1)c1cccc(C(F)(F)F)c1 : reported log10(IC50) = 1.72

O=S(=O)(Nc1ccc(-c2nc3ccccc3o2)cc1)c1ccc(Cl)c(Cl)c1 yielded log10(IC50) of 1.63

Form: molecule = O=S(=O)(Nc1ccc2oc(-c3ccccc3)nc2c1)c1cccc(C(F)(F)F)c1 ; log10(IC50) = 1.98

Measured log10(IC50) of O=S(=O)(Nc1ccc(-c2nc3cc(NS(=O)(=O)c4ccccc4F)ccc3o2)cc1)c1ccccc1F : 1.30

response.value for O=S(=O)(Nc1ccc(-c2nc3ccccc3o2)cc1)c1ccccc1 (field: log10(IC50)) = 1.97

Record summary for O=S(=O)(Nc1ccc(-c2nc3cc(NS(=O)(=O)c4ccc(F)cc4)ccc3o2)cc1)c1ccc(F)cc1 : reported log10(IC50) = 0.52

Field log10(IC50) (entry O=S(=O)(Nc1ccc(-c2nc3ccccc3o2)cc1)c1ccccc1C(F)(F)F ) reads 1.88

What the record says about O=S(=O)(Nc1ccc(-c2nc3ccccc3o2)cc1)c1ccccc1O : log10(IC50) is 1.92

log10(IC50) in this record for O=S(=O)(Nc1ccc(-c2nc3ccccc3o2)cc1)c1cccc(F)c1 : 1.96

GET /value?item= O=S(=O)(Nc1ccc(-c2nc3ccccc3o2)cc1)c1cccc(Cl)c1 &field=log10(IC50) returns 1.90

Entry under test: O=[N+]([O-])c1cc(S(=O)(=O)Nc2ccc3oc(-c4ccccc4)nc3c2)ccc1Cl . Its log10(IC50) was 1.20

Looking up O=S(=O)(Nc1ccc2oc(-c3ccc(NS(=O)(=O)c4ccc(Cl)s4)cc3)nc2c1)c1ccccc1 , I found its log10(IC50) recorded as 0.75

Value of log10(IC50) reported for the molecule COc1ccc(Cl)cc1S(=O)(=O)Nc1ccc(-c2nc3ccccc3o2)cc1 is 1.77

The reported numbers originate from ChEMBL document CHEMBL4387722.
